biological target: ELF1 (human, UniProt P32519 1-619); assay: EMSA; Protein 3-fold dilutions with 1e-11 (M) 32P-dsDNA, 30 min on ice, 6% polyacrylamide gel; binding buffer as in earlier paper (not given); protein dialysis buffer 10 mM Tris pH 7.9, 0.5 mM EDTA, 50 mM KCl, 1 mM DTT, 10% glycerol; settings: protein: recombinant; tags: N-terminal 6xHis (pET28a); label: 32P; (only one strand given)
Sequence (P32519 whole entry): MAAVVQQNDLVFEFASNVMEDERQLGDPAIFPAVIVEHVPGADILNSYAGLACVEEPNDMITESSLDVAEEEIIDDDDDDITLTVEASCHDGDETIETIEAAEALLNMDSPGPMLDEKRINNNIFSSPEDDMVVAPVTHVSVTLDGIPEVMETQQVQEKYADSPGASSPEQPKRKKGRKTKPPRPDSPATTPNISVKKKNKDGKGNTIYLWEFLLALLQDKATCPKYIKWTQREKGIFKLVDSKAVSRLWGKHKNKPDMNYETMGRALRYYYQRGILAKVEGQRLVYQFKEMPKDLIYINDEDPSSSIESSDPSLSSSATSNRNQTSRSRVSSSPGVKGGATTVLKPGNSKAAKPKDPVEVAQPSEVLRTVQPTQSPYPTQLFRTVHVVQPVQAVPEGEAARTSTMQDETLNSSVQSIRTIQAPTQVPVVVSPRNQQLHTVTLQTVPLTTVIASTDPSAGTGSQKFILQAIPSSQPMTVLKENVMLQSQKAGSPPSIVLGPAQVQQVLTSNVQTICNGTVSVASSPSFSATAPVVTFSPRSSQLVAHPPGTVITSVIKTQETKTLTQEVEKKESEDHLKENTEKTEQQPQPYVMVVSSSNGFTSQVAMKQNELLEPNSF
parameterMeasured: Kd (nM)
Answer in nM, number only, no unit symbol.

Entry ETS consensus CCGGAAGT (dsDNA) DNA 1: GGCCAAGCCGGAAGTGTGTGGTAAACACTTT DNA 2: AAAGTGTTTACCACACACTTCCGGCTTGGCC has what Kd?
0.17
